Provenance of the data: patent US10947243B2

molecular target: Recombinant human Aurora B (amino acids 1-344) (Homo sapiens (Human)); assay: Aurora B Kinase Test (ADP Glo luminescence); format: biochemical; settings: comparison compounds, Example numbers of WO 2013/014060; read-out: IC50 in μM (AURB-Inhibition)
Sequence (Q96GD4 whole entry, the tested form may be a part): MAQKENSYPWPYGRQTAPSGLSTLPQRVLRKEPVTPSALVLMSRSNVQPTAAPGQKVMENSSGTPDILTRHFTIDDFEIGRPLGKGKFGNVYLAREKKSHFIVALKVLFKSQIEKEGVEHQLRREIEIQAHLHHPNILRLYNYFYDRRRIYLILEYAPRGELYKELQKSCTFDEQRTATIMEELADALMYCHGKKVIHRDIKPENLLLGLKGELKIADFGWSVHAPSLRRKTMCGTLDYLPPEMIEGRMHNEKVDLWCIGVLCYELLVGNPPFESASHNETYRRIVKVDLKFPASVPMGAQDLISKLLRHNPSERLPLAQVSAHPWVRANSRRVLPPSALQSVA
Outcome Measure: IC50

// known answers, use as guide
Cc1c(-c2cc(O[C@H](C)[C@H]3CNC(=O)C3)c3cccnc3c2)cnn1C [compound 112] ... 2.96 µM
CC(C)n1cc(-c2cc(O[C@H](C)[C@H]3CNC(=O)C3)c3cccnc3c2)cn1 [compound 115] ... 0.021 µM
COc1cc(-c2cc3nn(C)cc3c(O[C@H](C)[C@H]3CNC(=O)C3)n2)ccc1OC(C)C [Example 81] ... 0.949 µM

Kindly review the next molecule as well.
In plain terms, COc1cc(-c2cc3nn(C)cc3c(O[C@H](C)[C@H]3CNC(=O)C3)n2)ccc1O [Example 8] has a documented IC50 of 0.643 µM
